measurement target: BTK (Homo sapiens, UniProt Q06187)
Sequence (Q06187 402-655 limits assumed): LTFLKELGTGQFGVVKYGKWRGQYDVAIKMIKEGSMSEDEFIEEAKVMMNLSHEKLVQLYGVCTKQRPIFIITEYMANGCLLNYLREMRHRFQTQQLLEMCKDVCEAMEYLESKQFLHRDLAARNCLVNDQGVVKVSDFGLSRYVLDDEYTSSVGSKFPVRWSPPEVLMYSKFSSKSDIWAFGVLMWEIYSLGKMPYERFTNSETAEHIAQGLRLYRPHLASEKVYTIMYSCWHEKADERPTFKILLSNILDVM
measurement notes: biochemical
reported conditions: read-out: BTK inhibition (%), 0.75 uM BTK, […] probe 3l, 15 min preincubation
quantity: inhibition at 10 µM (%)
The answer is to be given in %; state only the numeric part.

- OC[C@@H](O)[C@@H](O[C@@H]1O[C@H](CO)[C@H](O)[C@H](O)[C@H]1O)[C@H](O)[C@@H](O)CO: 17.8

The recorded inhibition at 10 µM for CC(C)=CCC[C@](C)(O[C@@H]1O[C@H](CO[C@@H]2O[C@H](CO)[C@@H](O)[C@H](O)[C@H]2O)[C@@H](O)[C@H](O)[C@H]1O)[C@H]1CC[C@]2(C)[C@@H]1[C@H](O)C[C@@H]1[C@@]3(C)CC[C@H](O[C@@H]4O[C@H](CO)[C@@H](O)[C@H](O)[C@H]4O[C@@H]4O[C@H](CO)[C@@H](O)[C@H](O)[C@H]4O)C(C)(C)[C@@H]3CC[C@]12C is -0.7

The recorded inhibition at 10 µM for CCCCCCCCCC[C@H](C(=O)O)[C@]1(C(=O)O)CCC(=O)O1 is 17.8
